Value source: the supplement of paper PMC11246515

Test: total protein half-life in vivo (active degradation + dilution); higher = more stable protein
Conditions: E. coli NCM3722 delta-smpB; growth: N-lim chemostat; doubling time 6 h
property_measured: total protein half-life in vivo (h)
Output spec: scalar in h, unitless text.

The following sequences have reported results that may help.
MMMGEVQSLPSAGLHPALQDALTLALAARPQEKAPGRYELQGDNIFMNVMTFNTQSPVEKKAELHEQYIDIQLLLNGEERILFGMAGTARQCEEFHHEDDYQLCSTIDNEQAIILKPGMFAVFMPGEPHKPGCVVGEPGEIKKVVVKVKADLMA
4.8
MEFAFYICGLIAILATLRVITHTNPVHALLYLIISLLAISGVFFSLGAYFAGALEIIVYAGAIMVLFVFVVMMLNLGGSEIEQERQWLKPQVWIGPAILSAIMLVVIVYAILGVNDQGIDGTPISAKAVGITLFGPYVLAVELASMLLLAGLVVAFHVGREERAGEVLSNRKDDSAKRKTEEHA [P0AFE0]
6.02
MKTLIVSTVLAFITFSAQAAAFQVTSNEIKTGEQLTTSHVFSGFGCEGGNTSPSLTWSGVPEGTKSFAVTVYDPDAPTGSGWWHWTVVNIPATVTYLPVDAGRRDGTKLPTGAVQGRNDFGYAGFGGACPPKGDKPHHYQFKVWALKTEKIPVDSNSSGALVGYMLNANKIATAEITPVYEIK
5.05

Would you kindly look at the next entry?
Reported total protein half-life in vivo ( MMELMVVHPHIFWLSLGGLLLAAEMLGGNGYLLWSGVAAVITGLVVWLVPLGWEWQGVMFAILTLLAAWLWWKWLSRRVREQKHSDSHLNQRGQQLIGRRFVLESPLVNGRGHMRVGDSSWPVSASEDLGAGTHVEVIAIEGITLHIRAVSS [P0AAS3] ) = 6.81
